# measurement-target: α2AAR (Homo sapiens)
# Construct: host or cells: HEK293 (membranes)
# Sequence (P08913 whole entry, species assumed): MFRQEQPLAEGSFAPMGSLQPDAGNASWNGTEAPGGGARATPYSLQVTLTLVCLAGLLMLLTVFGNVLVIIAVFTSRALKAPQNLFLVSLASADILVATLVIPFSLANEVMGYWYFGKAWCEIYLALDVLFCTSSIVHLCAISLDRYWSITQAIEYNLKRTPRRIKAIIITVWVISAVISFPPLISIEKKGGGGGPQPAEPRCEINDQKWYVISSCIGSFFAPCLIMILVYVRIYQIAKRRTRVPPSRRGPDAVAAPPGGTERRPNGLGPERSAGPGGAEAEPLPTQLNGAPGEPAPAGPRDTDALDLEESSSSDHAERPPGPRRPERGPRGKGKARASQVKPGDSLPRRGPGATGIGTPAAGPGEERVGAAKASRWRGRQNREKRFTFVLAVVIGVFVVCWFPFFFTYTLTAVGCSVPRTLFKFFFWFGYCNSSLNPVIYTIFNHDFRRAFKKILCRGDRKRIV
# method-notes: α2AAR binding assay ([3H]-RX 821002 radioligand)
# condition-info: [3H]-RX 821002 0.5 nM, HEK293 membranes; read-out: α2A affinity (Ki)
quantity-name: Ki

Q. Which Ki reading was recorded for the compound Cc1cccc(C(c2c[nH]cn2)c2cccc(C(N)=O)c2F)c1C (single isomer, unassigned) [45-B] ?
A. < 10 nM

Q. Which Ki reading was recorded for the compound CNc1cccc(CC(c2c[nH]cn2)c2cccc(C)c2C)c1 (stereo not drawn) ?
A. 10 to 50 nM

Q. Which Ki reading was recorded for the compound `COCCOCc1cccc(Cl)c1NC1=NCCN1` ?
A. 250 to 1000 nM

###

# measurement-target: α2AAR (Homo sapiens)
# Construct: host or cells: HEK293 (membranes)
# method-notes: α2AAR binding assay ([3H]-RX 821002 radioligand)
# condition-info: [3H]-RX 821002 0.5 nM, HEK293 membranes; read-out: α2A affinity (Ki)
pKi: −log10 of the molar value.
quantity-name: pKi

Q. Which pKi reading was recorded for the compound CONC(=O)Nc1cccc(C(c2c[nH]cn2)c2cccc(C)c2C)c1 (stereo not drawn) [compound 72] ?
A. 7.30 to 8.00

Q. Which pKi reading was recorded for the compound Cc1cccc(C(Cc2ccc(S(=O)(=O)O)cc2)c2c[nH]cn2)c1C (stereo not drawn) [compound 221] ?
A. 7.30 to 8.00

Q. Which pKi reading was recorded for the compound Cc1cccc(C(c2cccc(NC(=O)CC[n+]3ccccc3)c2)c2c[nH]cn2)c1C (stereo not drawn) [compound 143] ?
A. 7.30 to 8.00

Q. Which pKi reading was recorded for the compound Cc1cccc(C(c2cccc(C(=O)NOCC3CCOC3)c2)c2c[nH]cn2)c1C (stereo not drawn) [compound 95] ?
A. > 8.00

Q. Which pKi reading was recorded for the compound Cc1cccc(C(c2c[nH]cn2)c2ccnc(C(N)=O)c2F)c1C (stereo not drawn) [compound 58] ?
A. 6.60 to 7.30

Q. Which pKi reading was recorded for the compound Cc1cccc(C(Cc2cccc(NS(C)(=O)=O)c2)c2c[nH]cn2)c1C (stereo not drawn) [compound 76] ?
A. > 8.00

Q. Which pKi reading was recorded for the compound Cc1cccc(C(c2cccc(NC(=O)CN3CCC(O)CC3)c2)c2c[nH]cn2)c1C (stereo not drawn) [compound 123] ?
A. > 8.00

Q. Which pKi reading was recorded for the compound Cc1cccc(C(c2cccc(C(=O)NOCCN3CCOCC3)c2)c2c[nH]cn2)c1C (stereo not drawn) [compound 91] ?
A. 6.60 to 7.30

Q. Which pKi reading was recorded for the compound COc1ccccc1C(Cc1cccc(NS(C)(=O)=O)c1)NC1=NCCO1 (stereo not drawn) [compound 509] ?
A. > 8.00

Q. Which pKi reading was recorded for the compound Cc1cccc(C(c2cccc(N(C)S(C)(=O)=O)c2)c2c[nH]cn2)c1C (stereo not drawn) [compound 71] ?
A. 7.30 to 8.00

Q. Which pKi reading was recorded for the compound Cc1cccc(C(COCCOCCOCCNS(C)(=O)=O)c2c[nH]cn2)c1C (stereo not drawn) [compound 26] ?
A. 6.60 to 7.30

Q. Which pKi reading was recorded for the compound Cc1cccc(C(c2cccc(NC(=O)CC3CCS(=O)(=O)CC3)c2)c2c[nH]cn2)c1C (stereo not drawn) [compound 117] ?
A. 7.30 to 8.00

Q. Which pKi reading was recorded for the compound COc1ccccc1C(c1cccc(NS(C)(=O)=O)c1)c1c[nH]cn1 (stereo not drawn) [compound 135] ?
A. 6.60 to 7.30

Q. Which pKi reading was recorded for the compound Cc1cccc(C(c2cccc(CN3CCCCC3)c2)c2c[nH]cn2)c1C (stereo not drawn) [compound 114] ?
A. < 6.00

Q. Which pKi reading was recorded for the compound Cc1cccc(C(Cc2cccc(NS(=O)(=O)C3CCOCC3)c2)c2c[nH]cn2)c1C (stereo not drawn) [compound 134] ?
A. > 8.00

Q. Which pKi reading was recorded for the compound Cc1cccc(C(Cc2cccc(NS(=O)(=O)CC3CCOCC3)c2)c2c[nH]cn2)c1C (stereo not drawn) [compound 112] ?
A. > 8.00

Q. Which pKi reading was recorded for the compound Cc1cccc(C(Cc2ccc(NC(=O)CC3CCCO3)cc2)c2c[nH]cn2)c1C (stereo not drawn) [compound 176] ?
A. > 8.00

Q. Which pKi reading was recorded for the compound CC(=O)N(C)c1ccc(CC(c2c[nH]cn2)c2cccc(C)c2C)cc1 (stereo not drawn) [compound 222] ?
A. 7.30 to 8.00

Q. Which pKi reading was recorded for the compound COC(=O)Nc1cccc(C(c2c[nH]cn2)c2cccc(C)c2C)c1 (stereo not drawn) [compound 62] ?
A. 6.60 to 7.30

Q. Which pKi reading was recorded for the compound Cc1cccc(C(Cc2ccc(C(=O)NCCC(=O)O)cc2)c2c[nH]cn2)c1C (stereo not drawn) [compound 236] ?
A. 6.60 to 7.30

Q. Which pKi reading was recorded for the compound CONC(=O)c1cccc(C(NC2=NCCS2)c2ccccc2OC)c1 (stereo not drawn) [compound 508] ?
A. 6.00 to 6.60

Q. Which pKi reading was recorded for the compound Cc1cccc(C(c2cccc(-c3cnnn3C)c2)c2c[nH]cn2)c1C (stereo not drawn) [compound 164] ?
A. 7.30 to 8.00

Q. Which pKi reading was recorded for the compound COC(=O)Nc1ccc(CC(c2c[nH]cn2)c2cccc(C)c2C)cc1 (stereo not drawn) [compound 194] ?
A. > 8.00

Q. Which pKi reading was recorded for the compound Cc1cccc(C(Cc2ccc(C(=O)NO)cc2)c2c[nH]cn2)c1C (stereo not drawn) [compound 219] ?
A. > 8.00
